From: ChEMBL document CHEMBL3596173

# targetOrTestSystem: Delta-type opioid receptor (Homo sapiens, UniProt P41143)
# Sequence (P41143 whole entry): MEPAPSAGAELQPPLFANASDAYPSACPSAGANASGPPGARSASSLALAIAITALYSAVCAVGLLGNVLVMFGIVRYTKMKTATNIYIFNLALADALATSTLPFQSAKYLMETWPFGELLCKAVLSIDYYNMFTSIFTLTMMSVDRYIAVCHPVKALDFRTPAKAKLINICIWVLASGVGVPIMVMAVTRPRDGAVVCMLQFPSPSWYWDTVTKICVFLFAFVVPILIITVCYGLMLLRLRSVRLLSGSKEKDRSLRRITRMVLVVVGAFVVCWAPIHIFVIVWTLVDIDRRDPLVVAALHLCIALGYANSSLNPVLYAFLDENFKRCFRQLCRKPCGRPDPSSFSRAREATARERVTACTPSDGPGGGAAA
# measurementDescription: Displacement of [3H]-naltrindole from human delta opioid receptor expressed in CHO cells after 3 hrs by scintillation counting analysis
# Assay type: cell-based
Non-standard residues stand in square brackets, D forms with d. Residues, ends and D or L forms follow the SMILES beside them. *: point of attachment. βGlc = OC[C@H]1O[C@@H](*)[C@H](O)[C@@H](O)[C@@H]1O; Aib = CC(C)(N)C(=O)O; GABA = NCCCC(=O)O
Classify: Y when Ki is strictly less than 9 nM; N when Ki is not.

Some entries whose results are on file:
• CC(C)C[C@H](NC(=O)[C@H](CO[C@@H]1O[C@H](CO)[C@@H](O)[C@H](O)[C@H]1O)NC(=O)[C@H](CCCCN)NC(=O)[C@H](CC(C)C)NC(=O)[C@H](C)NC(=O)[C@H](CCCCN)NC(=O)[C@H](CCC(=O)O)NC(=O)C(C)(C)NC(=O)[C@H](CC(C)C)NC(=O)[C@H](CC(N)=O)NC(=O)CCCNC(=O)[C@H](CC(C)C)NC(=O)[C@H](Cc1ccccc1)NC(=O)CNC(=O)[C@@H](NC(=O)[C@@H](N)Cc1ccc(O)cc1)[C@@H](C)O)C(N)=O (H-YTGFL[GABA]NL[Aib]EKALKS(βGlc)L-NH2) = Y
• CC(C)C[C@H](NC(=O)[C@H](CO[C@@H]1O[C@H](CO)[C@@H](O)[C@H](O)[C@H]1O)NC(=O)[C@H](CCCCN)NC(=O)[C@H](CC(C)C)NC(=O)[C@H](C)NC(=O)[C@H](CCCCN)NC(=O)[C@H](CCC(=O)O)NC(=O)C(C)(C)NC(=O)[C@H](CC(C)C)NC(=O)[C@H](CC(N)=O)NC(=O)[C@@H]1CCCN1C(=O)[C@H](CC(C)C)NC(=O)[C@H](Cc1ccccc1)NC(=O)CNC(=O)[C@@H](NC(=O)[C@@H](N)Cc1ccc(O)cc1)[C@@H](C)O)C(N)=O = Y
• CC(C)C[C@H](NC(=O)[C@H](CO[C@@H]1O[C@H](CO)[C@@H](O)[C@H](O)[C@H]1O)NC(=O)[C@H](CCCCN)NC(=O)[C@H](CC(C)C)NC(=O)[C@H](C)NC(=O)[C@H](CCCCN)NC(=O)[C@H](CCC(=O)O)NC(=O)C(C)(C)NC(=O)[C@H](CC(C)C)NC(=O)[C@H](CC(N)=O)NC(=O)[C@@H]1CCCN1C(=O)[C@@H]1CCCN1C(=O)[C@H](Cc1ccccc1)N(C)C(=O)CNC(=O)[C@@H](C)NC(=O)[C@@H](N)Cc1ccc(O)cc1)C(N)=O = N

From here, focus on the item given below.
Regarding `CC(C)C[C@H](NC(=O)[C@H](CO[C@@H]1O[C@H](CO)[C@@H](O)[C@H](O)[C@H]1O)NC(=O)[C@H](CCCCN)NC(=O)[C@H](CC(C)C)NC(=O)[C@H](C)NC(=O)[C@H](CCCCN)NC(=O)[C@H](CCC(=O)O)NC(=O)C(C)(C)NC(=O)[C@H](CC(C)C)NC(=O)[C@H](CC(N)=O)NC(=O)[C@@H]1CCCN1C(=O)CNC(=O)[C@H](Cc1ccccc1)N(C)C(=O)CNC(=O)[C@@H](C)NC(=O)[C@@H](N)Cc1ccc(O)cc1)C(N)=O` , kindly confirm whether its Ki is beneath 9 nM.
N
